Recorded conditions: 303.15 K; 101 kPa; Liquid
Test readout: viscosity (mPa·s)

A = CC1CCCC1
B = CCC(C)O (configuration not stated)
Identify the item whose viscosity is the smaller number: A or B Lab log: write the label of the selected item as the result.
A

----------
Recorded conditions: 293.15 K; 101 kPa; Liquid
Test readout: speed of sound (m/s)

INSERT INTO measurements (molecule, observed_measurement) VALUES
  ('CC(C)O [propan-2-ol]', 1156),
  ('CC1CCCC1 [methylcyclopentane]', 1197),
  ('CCO [ethanol]', 1162),
  ('CCCCO [butan-1-ol]', 1257),
  ('CCCO [propan-1-ol]', 1223),
  ('CCCC(C)O (configuration not stated) [pentan-2-ol]', 1250),
  ('CCC(C)O (configuration not stated) [butan-2-ol]', 1230);
